Item-by-item account of Ki
Target: BCL-XL (UniProt Q07817 1-209)
Sequence (Q07817 1-209): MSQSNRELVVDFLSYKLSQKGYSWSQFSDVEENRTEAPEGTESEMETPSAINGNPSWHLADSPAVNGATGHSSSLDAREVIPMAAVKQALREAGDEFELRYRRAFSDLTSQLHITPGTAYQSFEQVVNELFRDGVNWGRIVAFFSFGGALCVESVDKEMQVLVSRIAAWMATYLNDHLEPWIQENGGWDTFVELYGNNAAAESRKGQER
Assay: Ki table, method not stated
Positions of bridges follow the written chain, without caps; N, C: chain ends. Non-standard residues stand in square brackets, D forms with d. R8 = C=CCCCCCC[C@@](C)(N)C(=O)O; S5 = C=CCCC[C@](C)(N)C(=O)O

Binder	Ki
Ac-IAQALR[R8]IGDAFN[S5]AYA-NH2 (staple 7-14; SMILES CC[C@H](C)[C@H](NC(C)=O)C(=O)N[C@@H](C)C(=O)N[C@@H](CCC(N)=O)C(=O)N[C@@H](C)C(=O)N[C@@H](CC(C)C)C(=O)N[C@@H](CCCNC(=N)N)C(=O)N[C@]1(C)CCCCCCC=CCCC[C@@](C)(C(=O)N[C@@H](C)C(=O)N[C@@H](Cc2ccc(O)cc2)C(=O)N[C@@H](C)C(N)=O)NC(=O)[C@H](CC(N)=O)NC(=O)[C@H](Cc2ccccc2)NC(=O)[C@H](C)NC(=O)[C@H](CC(=O)O)NC(=O)CNC(=O)[C@H]([C@@H](C)CC)NC1=O, also called Ac-IAQALR$r8IGDAFN$AYA-NH2) [SEQ ID NO: 1640]	472 nM
Ac-IAAALR[R8]IGDAFN[S5]YYA-NH2 (staple 7-14; SMILES CC[C@H](C)[C@H](NC(C)=O)C(=O)N[C@@H](C)C(=O)N[C@@H](C)C(=O)N[C@@H](C)C(=O)N[C@@H](CC(C)C)C(=O)N[C@@H](CCCNC(=N)N)C(=O)N[C@]1(C)CCCCCCC=CCCC[C@@](C)(C(=O)N[C@@H](Cc2ccc(O)cc2)C(=O)N[C@@H](Cc2ccc(O)cc2)C(=O)N[C@@H](C)C(N)=O)NC(=O)[C@H](CC(N)=O)NC(=O)[C@H](Cc2ccccc2)NC(=O)[C@H](C)NC(=O)[C@H](CC(=O)O)NC(=O)CNC(=O)[C@H]([C@@H](C)CC)NC1=O, also called Ac-IAAALR$r8IGDAFN$YYA-NH2) [SEQ ID NO: 1636]	256 nM
IWIAQALXAIGDQFNAYYA (not fully specified; Ac- at N-terminus; -NH2 at C-terminus; $r8 at 9 and $ at 16 joined by all-carbon crosslinker; Cit (citrulline) at 8) [SEQ ID NO: 1656]	28.8 nM
Ac-IWIAQA[hhL]R[R8]IGDAFN[S5]YYA-NH2 (staple 9-16, also called Ac-IWIAQAhhLR$r8IGDAFN$YYA-NH2) [SEQ ID NO: 1688]	136 nM
